# IC50 per entry
- STUDY_SYSTEM: Runt-related transcription factor 1 (Homo sapiens)
- Sequence (Q01196 whole entry): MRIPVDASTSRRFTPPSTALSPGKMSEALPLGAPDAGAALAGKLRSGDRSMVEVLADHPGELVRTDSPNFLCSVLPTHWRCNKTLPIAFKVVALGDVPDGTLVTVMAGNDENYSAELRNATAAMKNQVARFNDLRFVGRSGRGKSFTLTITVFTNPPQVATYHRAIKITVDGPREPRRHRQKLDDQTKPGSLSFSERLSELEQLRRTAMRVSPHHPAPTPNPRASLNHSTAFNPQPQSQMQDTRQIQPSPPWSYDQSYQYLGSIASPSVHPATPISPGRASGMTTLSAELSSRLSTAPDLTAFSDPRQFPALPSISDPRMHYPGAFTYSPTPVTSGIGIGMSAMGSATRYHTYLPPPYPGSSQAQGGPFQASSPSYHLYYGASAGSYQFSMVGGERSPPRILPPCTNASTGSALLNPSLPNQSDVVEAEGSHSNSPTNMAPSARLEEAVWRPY
Please reply with the bare figure in µM and do not write the unit itself.

- COMPOUND: "Cc1ccc(C)c(-c2csc(N=NC(C)c3cc4c(ccc5ccccc54)oc3=O)n2)c1 (configuration not stated)"
  ENDPOINT_LABEL: "IC50"
  RECORDED_VALUE: 10.1

Now examine the next entry.
// IC50 value for CN1c2ccsc2C(=O)C(C(=S)Nc2ccc(F)c(Cl)c2)S1(=O)=O (configuration not stated) : 100
